- SYSTEM_NAME: T1, recombinant human PAD4 (human, UniProt Q9UM07 1-663)
- T1 construct: also called rhPAD4; hPAD4
- EXPERIMENT_NOTES: SPR 37 C, captured antibody, PAD4 analyte, 1 mM CaCl2
- Description: Their binding to human PAD4 was measured by Surface Plasmon Resonance (SPR). SPR measurements were performed with a Biacore® 8K, 8K+, or T200 instrument (Cytiva). The association rate constants, kₒₙ, dissociation rate constants, koff, and equilibrium dissociation constants, KD, of the antibodies with PAD4 were determined from these SPR measurements. For SPR measurements, either an anti-human capture surface or Protein A surface (Cytiva catalog #29127555) was used. […]
RESULT_TYPE: pKd
To interpret pKd, take it as minus log10 of a concentration measured in moles per litre.

In the examples that follow, each entry is paired with its recorded pKd.
* hz13-9 (antibody, V domains shown, light constant region not tied to this antibody) VH: EVLLVQSGAEVKKPGASVKLSCTSSDFNIKDHFIHWVRQAPGKGLEWIGRIDPEDDETKYAPKFQDRVTITADTSTDTAYLELSSLRSEDTAVFYCAGYGNYEGAMDYWGQGTLVTVSS VL: DIVMTQSPSSLSASVGDRVTLTCRASENVNNYGIGFMNWFQQKPGKAPKLLIYAASRRGSGVPSRFSGSGSGTDFTLTISSMQPEDFATYFCQQSKEVPYTFGQGTKLEIK | 10.00
* hz13-12 D31E (antibody, human IgG1, kappa, V domains shown, IgG1.3f; also called hz3-12 D31E) VH: EVQLVQSGAEVKKPGATVKISCTSSDFNIKEHFIHWVQQAPGKGLEWMGRIDPEDDETKYAPKFQDRVTITADTSTDTAYMELSSLRSEDTAVYYCAGYGNYEGAMDYWGQGTTVTVSS VL: DVVMTQSPLSLPVTLGQPASISCRASENVNNYGIGFMNWFQQRPGQSPRLLIYAASRRGSGVPDRFSGSGSGTDFTLKISRVEEEDVGVYYCQQSKEVPYTFGGGTKVEIKR | 10.00
* hz20-8 (antibody, V domains shown, light constant region not tied to this antibody) VH: QVQLVQSGAEVKKPGASVKVSCKASGYTFTNYGISWVRQAPGQGLEWMGEIYPRSGNTYHNEKFKDRVTMTTDTSTSTAYMELRSLRSDDTAVYYCARSMITTRYWYFDVWGKGTTVTVSS VL: DIVMTQSPDSLAVSLGERATINCRASESVDTYGNSFMHWYQQKPGQPPKLLIYLASNLESGVPDRFSGSGSGTDFTLTIDSLQAEDVAVYYCQQNNEDPLTFGQGTKLEIK | 9.10

Supply recorded pKd for hz13-7 (antibody, V domains shown, light constant region not tied to this antibody) VH: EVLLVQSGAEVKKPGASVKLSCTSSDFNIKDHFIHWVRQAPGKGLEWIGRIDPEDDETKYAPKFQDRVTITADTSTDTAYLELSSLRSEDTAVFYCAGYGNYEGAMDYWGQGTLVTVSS VL: DIQMTQSPSSLSASVGDRVTITCRASENVNNYGIGFMNWYQQKPGKAPKLLIYAASRRGSGVPSRFSGSGSGTDFTLTISSLQPEDFATYYCQQSKEVPYTFGQGTKVEIK here.
10.00

Supply recorded pKd for hz13-2 (antibody, V domains shown, light constant region not tied to this antibody) VH: EVQLVQSGAEVKKPGASVKVSCTSSDFNIKDHFIHWVRQAPGKGLEWMGRIDPEDDETKYAPKFQDRVTMTADTSTDTAYMELSSLRSEDTAVYYCAGYGNYEGAMDYWGQGTLVTVSS VL: DIQMTQSPSSLSASVGDRVTITCRASENVNNYGIGFMNWFQQKPGKAPKLLIYAASRRGSGVPSRFSGSGSGTDFTLTISSLQPEDFATYFCQQSKEVPYTFGQGTKVEIK here.
10.00

Reference source for all entries: patent US20240132622A1
